# key: entry, value: LD50
# assayNotes: in vivo
# conditionSet: rat, po

The following compounds have reported results that may help.
INSERT INTO assay_data (smilesstructure, datavalue) VALUES
  ('Cc1nc2sccn2c1C=NNC(=O)CN(C)C', '~1500 mg/kg'),
  ('Cc1nc2n(c1C=NNC(=O)CN(C)C)CCS2', '> 1000 mg/kg'),
  ('Cc1ccc(-c2nc3n(c2C=NNC(=O)CN(C)C)CCS3)cc1', '~800 mg/kg'),
  ('CN(C)CC(=O)NN=Cc1c(Cl)nc2sccn12', '~1500 mg/kg'),
  ('CN(C)CC(=O)NN=Cc1c(-c2ccc(Cl)cc2)nc2n1CCS2', '~800 mg/kg'),
  ('NCC(=O)NN=Cc1c(-c2ccccc2)nc2sccn12', '> 1000 mg/kg'),
  ('CN(C)CC(=O)NN=Cc1c(-c2ccccc2)nc2sccn12', '~600 mg/kg'),
  ('CN(C)CC(=O)NN=Cc1c(-c2ccc(Cl)cc2)nc2sccn12', '> 1000 mg/kg'),
  ('Cc1cn2c(C=NNC(=O)CN(C)C)c(-c3ccccc3)nc2s1', '> 3000 mg/kg'),
  ('Cc1ccc(-c2nc3sccn3c2C=NNC(=O)CN(C)C)cc1', '> 3000 mg/kg');

Reported LD50 ( "Cc1csc2nc(-c3ccccc3)c(C=NNC(=O)CN(C)C)n12" ) = > 3000 mg/kg

Reported LD50 ( "Cc1cn2c(C=NNC(=O)CN(C)C)c(C)nc2s1" ) = ~1000 mg/kg

Reported LD50 ( "CN(C)CC(=O)NN=Cc1c(-c2ccccc2)nc2n1CCS2" ) = > 3000 mg/kg

From: patent EP0164635A2
